protocol description: Therapeutic index, ratio of CC50 for HEp2 to EC50 for RSV long A
applied conditions: human, HEp2 cells; read-out: Ratio CC50/EC50
For each entry below, report its selectivity ratio value.
Just the number.

Asked: Look up selectivity ratio: CC(C)CCn1c(Cn2c(=O)n(CC(=O)OC(C)(C)C)c3ccccc32)nc2cc(/C(N)=N\O)ccc21
Given back: 1240

Asked: And the next one, COC(=O)c1cccc2c1nc(Cn1c(=O)n(C(C)C)c3ccccc31)n2CCC(C)C ?
Given back: 0.213

Asked: Now consider CC(C)CCn1c(Cn2c(=O)n(C(C)C)c3ccccc32)nc2cccc(CN)c21 .
Given back: 0.058

Asked: Also need CC(C)CCn1c(Cn2c(=O)n(C(C)C)c3ccccc32)nc2ccc(CCN)cc21 , thanks.
Given back: 8.02

Asked: Lookup CC(C)CCn1c(Cn2c(=O)n(C(C)C)c3ccccc32)nc2cc(CN(C)C)ccc21
Given back: 0.031

Asked: Entry to check: C=C(C)n1c(=O)n(Cc2nc3cc(C#N)ccc3n2CCC(C)C)c2ccccc21
Given back: 26

Asked: Same thing, different compound: CC(C)CCn1c(Cn2c(=O)n(C(C)C)c3ccccc32)nc2ccc(C(=O)O)cc21
Given back: 0.525

Asked: Repeat for the following compound: C=C(C)n1c(=O)n(Cc2nc3cc(C(C)=O)ccc3n2CCC(C)C)c2ccccc21
Given back: 4.1

Asked: Input CC(C)CCn1c(Cn2c(=O)n(C(C)C)c3ccccc32)nc2ccc(CO)cc21
Given back: 609

Asked: Further, for CC(C)CCn1c(Cn2c(=O)n(C(C)C)c3ccccc32)nc2c(CCCN)cccc21 ?
Given back: 0.011

Asked: How about CC(C)CCn1c(Cn2c(=O)n(C(C)C)c3ccccc32)nc2cc(CCN)ccc21 ?
Given back: 2.54

Asked: Next up: C=C(C)n1c(=O)n(Cc2nc3cc(/C(N)=N\O)ccc3n2CCC(C)C)c2ccccc21
Given back: 694

Asked: Please give the result for C=C(C)n1c(=O)n(Cc2nc3ccccc3n2CCC(C)C)c2ccccc21 too.
Given back: 6160

Asked: Also need CC(C)CCn1c(Cn2c(=O)n(C(C)C)c3ccccc32)nc2cc(CO)ccc21 , thanks.
Given back: 632

Asked: Check CC(C)CCn1c(Cn2c(=O)n(C(C)C)c3ccccc32)nc2cc(CF)ccc21 too.
Given back: 793

Asked: Another: CC(C)CCn1c(Cn2c(=O)n(C(C)C)c3ccccc32)nc2cc(CNS(C)(=O)=O)ccc21
Given back: 42.4

Asked: Proceed to CC(C)CCn1c(Cn2c(=O)n(C(C)C)c3ccccc32)nc2c(CC#N)cccc21
Given back: 0.482

Asked: Param item: C=C(C)n1c(=O)n(Cc2nc3cc(C(=O)O)ccc3n2CCC(C)C)c2ccccc21
Given back: 0.11

Asked: Here is the next compound: CC(C)CCn1c(Cn2c(=O)n(C(C)C)c3ccccc32)nc2cc(Br)ccc21
Given back: 1010

Asked: Further, for CC(C)CCn1c(Cn2c(=O)n(C(C)C)c3ccccc32)nc2cc(CC#N)ccc21 ?
Given back: 114

Asked: Another: CC(=O)c1ccc2c(c1)nc(Cn1c(=O)n(C)c3ccccc31)n2CCC(C)C
Given back: 39.8

Asked: Further, for CC(C)CCn1c(Cn2c(=O)n(C(C)C)c3ccccc32)nc2cc(/C(N)=N\O)ccc21 ?
Given back: 82.2

Asked: How about this compound: CC(=O)NCc1ccc2c(c1)nc(Cn1c(=O)n(C(C)C)c3ccccc31)n2CCC(C)C
Given back: 282

Asked: Repeat for the following compound: CCc1ccc2c(c1)nc(Cn1c(=O)n(C(C)C)c3ccccc31)n2CCC(C)C
Given back: 26.8

Asked: Try CC(C)CCn1c(Cn2c(=O)n(C(C)C)c3ccccc32)nc2c(CCC#N)cccc21 next.
Given back: 0.096

Asked: Continue with CC(C)CCn1c(Cn2c(=O)n(CC(=O)O)c3ccccc32)nc2cc(C(=N)N)ccc21
Given back: 5570

Asked: What would you report for C=C(C)n1c(=O)n(Cc2nc3cc(C(=N)N)ccc3n2CCC(C)C)c2ccccc21 ?
Given back: 2700

Asked: Field entry: CC(C)CCn1c(Cn2c(=O)n(C(C)C)c3ccccc32)nc2c(CN)cccc21
Given back: 9.78

All values here come from ChEMBL document CHEMBL1140659.
